- Test system: DLD-1 colon
- EXPERIMENT: NCI tumour cell line growth inhibition, 48 h
MEASURED_PROPERTY: TGI

# MOLECULE, TEST_TARGET, TGI
data = [
    ("N#CNC1=NC(N)C(c2nc3ccccc3[nH]2)=C(CCCC(=O)Nc2cccc([N+](=O)[O-])c2)N1 (stereo not given)", "DLD-1 colon", "> 100 µM"),
    ("c1ccc(CN2COc3c(ccc4c5c(ccc34)CN(Cc3ccccc3)CO5)C2)cc1", "DLD-1 colon", "> 100 µM"),
    ("COc1cc(/C=C/C2=C(C#N)C(=O)OC2(C)C)ccc1O", "DLD-1 colon", "> 100 µM"),
    ("Cc1nnc(N/N=C(/C(=O)C(C#N)c2ccc(Cl)cc2)C(C#N)c2ccc(Cl)cc2)n1N (stereo not given)", "DLD-1 colon", "42.4 µM"),
    ("COc1cc(-c2cc(=O)c3ccccc3[nH]2)cc(OC)c1OC", "DLD-1 colon", "> 75 µM"),
    ("O=C(N/N=C(\\C1=Nc2ccc(Cl)cc2NC1O)C(O)/C=C/c1ccccc1)c1ccncc1 (stereo not given)", "DLD-1 colon", "> 100 µM"),
    ("COC(=O)c1ccc(C=C(C#N)C#N)cc1", "DLD-1 colon", "47.9 µM"),
    ("CCc1ccccc1NC(=O)CC1NC(=O)CS1 (stereo not given)", "DLD-1 colon", "> 100 µM"),
]

Return TGI (reported value) for this molecule: COc1c(CC=C(C)C)c(O)c(C(CC(C)C)c2c(O)c(CC=C(C)C)c(O)c(C(C)=O)c2O)c(O)c1C(C)=O (stereo not given)
10.9 µM

Tell us which TGI value is on record for `COc1ccc(/C=C/c2cc(OC)c(OCc3ccccc3)c(OC)c2)cc1`
> 100 µM
